test-protocol: amyloid nucleation score (Sup35N fusion, yeast selection) (log enrichment); library NNK2; higher = more nucleation; inactive = no reads after selection;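 further: zero at mode of non-aggregating sequences after 7 days selection at 30°C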
I'd be grateful if you could share measured amyloid nucleation score for these entries.
Give bare numbers.

Look over these answered cases.
sequence_content=EVVLSAILQHYMSFVSGDDL measured_quantity="amyloid nucleation score" reported_result=-0.201
sequence_content=VVSGTLKKMGVFGTSAIISE measured_quantity="amyloid nucleation score" reported_result=0.494
sequence_content=FNKNDNYYSAR measured_quantity="amyloid nucleation score" reported_result=-0.753
sequence_content=LYIASSSLHCGLDVAW measured_quantity="amyloid nucleation score" reported_result=-0.298

(Q) Endpoint output: amyloid nucleation score of LNGCGVLRPVR . Value?
(A) 5.89

###

test-protocol: amyloid nucleation score (Sup35N fusion, yeast selection) (log enrichment); library NNK2; higher = more nucleation; inactive = no reads after selection
measured-quantity: amyloid nucleation score
One number for each entry.

Please review the entries below; each comes with its answer.
substance=ESADQWAVTMVGRHFYLVLR reported_result=0.294
substance=MLVCRWNACSVVLSVSGLAR reported_result=0.718
substance=LRAWLSSLAHTKRRCELGTP reported_result=0.575
substance=SPVVADQPWCSI reported_result=0.321
substance=TVYSHEKGVQLWFLLIVALL reported_result=0.27

Hi team, please reply with amyloid nucleation score for each item in this list.
1. KCLVSMVLMYAVTMIWDAPD
2. NWIPSI
3. PIFSSKLSGRGR

(A)
[1.35, -0.817, -0.059]

###

test-protocol: amyloid nucleation score (Sup35N fusion, yeast selection) (log enrichment); library NNK2; higher = more nucleation; inactive = no reads after selection
I'd appreciate it if you could supply amyloid nucleation score values for the items below.
Answers are plain numbers.

Look over these answered cases.
substance=RLSIHKSFVFDLTRSALSTM reported_result=-0.293
substance=NIYADNARVWLPRGDRGLEW reported_result=0.799
substance=DDRELL reported_result=-0.32

List amyloid nucleation score for every entry below, keeping the order given.
1. MYLAGHLDCGGY
2. NTIEGPRYYGTFAISNGVTQ
3. TWSIYAHH
4. LIYNVDSVMNFVRVDNYDSP

(A)
[3.27, 0.824, 0.952, 6.88]

###

Kindly state amyloid nucleation score for each of the entries shown.
test-protocol: amyloid nucleation score (Sup35N fusion, yeast selection) (log enrichment); library NNK2; higher = more nucleation; inactive = no reads after selection
Give bare numbers.

# annotated cases, reported amyloid nucleation score shown
substance=WKVRISVFMLEAL measured_quantity="amyloid nucleation score" reported_result=2.77
substance=CVIGADALASG measured_quantity="amyloid nucleation score" reported_result=0.5
substance=MRTKGIRQADVFCESYRFNT measured_quantity="amyloid nucleation score" reported_result=-0.029

Return reported amyloid nucleation score values for all items listed beneath this line.
1. TTLYGNSRFTVCMTKGW
2. KYVSCNLLIGWYTLFSFYPF

(A)
-0.271
-0.649

I need amyloid nucleation score for every entry listed below, if you could help.
1. RQTSLKRL
2. QCKVQCKEWVYNVFAKLQDS
3. CTEGQLN
4. EILRSGMSCIWVLYDFIGI
5. CRYTASASDPDDTGLIRFNA
6. YYRYRHLMHLIKWME

(A)
1. -0.159
2. -0.927
3. 0.002
4. -0.437
5. 3.75
6. 0.216

Consider the following items and state reported amyloid nucleation score for each.
1. TGLAIGCFLVCSVLYGDR
2. KLNLMCWDGLYLDMKIDSNL
3. PVLFYSLYIVNVNTLYMSSG

(A)
[3.17, 3.94, 7.86]

Go through the list and state amyloid nucleation score for each entry.
1. IRSRLFFALLCVYS
2. KTLRCQRMVGYWGIRVDLGR

(A)
[-0.861, 1.31]
